- study_target: CYP1A2 (Homo sapiens, UniProt P05177)
- Construct: purchased Corning; host or cells: baculovirus-transfected insect cell microsomes (Supersomes)
- Sequence (P05177 1-516): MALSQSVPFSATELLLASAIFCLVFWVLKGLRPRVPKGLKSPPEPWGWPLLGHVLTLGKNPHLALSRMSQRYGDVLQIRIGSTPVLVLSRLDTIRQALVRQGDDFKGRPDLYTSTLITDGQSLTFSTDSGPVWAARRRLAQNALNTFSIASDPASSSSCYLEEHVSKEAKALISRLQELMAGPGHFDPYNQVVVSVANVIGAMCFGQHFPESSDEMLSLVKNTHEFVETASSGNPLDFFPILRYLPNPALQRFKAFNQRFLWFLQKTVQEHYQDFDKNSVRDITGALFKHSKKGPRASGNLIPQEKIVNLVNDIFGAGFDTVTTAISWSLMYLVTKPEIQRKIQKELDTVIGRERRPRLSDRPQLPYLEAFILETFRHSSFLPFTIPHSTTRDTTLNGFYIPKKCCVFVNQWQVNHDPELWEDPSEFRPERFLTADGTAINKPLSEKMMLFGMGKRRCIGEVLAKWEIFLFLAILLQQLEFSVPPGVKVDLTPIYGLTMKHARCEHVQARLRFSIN
- protocol_details: Monooxygenases activity screening, CYP1A2
- Type: in vitro ADME
- Set-up: key: +, detected; –: −, not detected
- condition_context: 25 μM 4F-MDMB-BINACA, 50 pmol/ml enzyme, 30 min, 37°C, duplicate
reported_property: Detection of metabolite in incubation with CYP1A2

[[record]]
compound = "COC(=O)[C@@H](NC(=O)c1n[nH]c2ccccc12)C(C)(C)C [MB4]"
reported_value = "+"

[[record]]
compound = "O=C(O)c1nn(CCCCF)c2ccccc12 [MB1]"
reported_value = "–"

[[record]]
compound = "CC(C)(C)C(NC(=O)c1nn(CCCCF)c2ccccc12)C(=O)O (centres unmarked) [MB8]"
reported_value = "–"

[[record]]
compound = "COC(=O)[C@@H](NC(=O)c1nn(CCCCF)c2ccccc12)C(C)(C)CO [MB16]"
reported_value = "–"


Attention now turns to another entry.
// query Return Detection of metabolite in incubation with CYP1A2 (reported value) for this compound: COC(=O)[C@@H](NC(=O)c1nn(CCCCO)c2ccccc12)C(C)(C)C [MB11]
// result –

###

- System: zebrafish larvae
- protocol_details: In vivo maximum-tolerated concentration (MTC) study in zebrafish larvae
- Set-up: species or system zebrafish (Danio rerio)
- condition_context: 100 μM, larvae 4 dpf, 24-h treatment, fifteen larvae
reported_property: Survival rate (%)
Value expressed in %; do not type the unit.

[[record]]
molecule = "COc1ccccc1CNC(C)Cc1ccc(OC)c(OC)c1 (centres unmarked)"
study_target = "zebrafish larvae"
reported_property = "Survival rate"
unit_descriptor = "%"
reported_value = 100


// query Return Survival rate (reported value) for this molecule: CCC(=O)n1cc2c3c(cccc31)C1=C[C@@H](C(=O)N(CC)CC)CN(C)[C@@H]1C2 [Metabolite 1P-LSD, 1-propionyl-d-lysergic acid diethylamide]
// result 100

// query Return Survival rate (reported value) for this molecule: COC(=O)C(NC(=O)c1nn(CCCCF)c2ccccc12)C(C)(C)C (centres unmarked)
// result 53

// query Return Survival rate (reported value) for this molecule: CCCCC(C(=O)c1ccc(F)cc1)N1CCCC1 (stereo not drawn) [Metabolite 4F-PHP, 4-fluoro-alpha-pyrrolidinohexiophenone]
// result 100

// query Return Survival rate (reported value) for this molecule: CCCC(NCC)C(=O)c1ccc2c(c1)OCO2 (centres unmarked)
// result 100
